Values compiled from patent US11053226B2.

# assayed_target: GDP-bound KRAS protein (aa 1-169), containing both G12C and C118A amino acid substitutions (Homo sapiens (Human), UniProt P01116, C118A/G12C)
# Sequence (P01116 other isoform, or with tags, fused parts or gaps G12C/C118A): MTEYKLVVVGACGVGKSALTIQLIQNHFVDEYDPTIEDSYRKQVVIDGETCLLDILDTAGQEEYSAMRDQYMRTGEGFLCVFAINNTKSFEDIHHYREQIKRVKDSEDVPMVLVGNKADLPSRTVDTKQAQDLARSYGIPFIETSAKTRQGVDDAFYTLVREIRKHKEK
# test_protocol: Coupled Nucleotide Exchange Assay
# Assay type: biochemical
# assay_context: first Coupled Exchange column; compound pre-incubation probably 5 min (rest of head not shown; b435 lists 5 min, 2 hours or 20 hours); read-out: Coupled Exchange IC50
pIC50: −log10 of the molar value.
Measured pIC50 by item

>  <compound>
C=CC(=O)N1CC(C)(NC(=O)Cn2ccc3cc(Br)ccc32)C1 [Example 352]

>  <limit_operator>
<

>  <pIC50>
3.60

$$$$
>  <compound>
C=CC(=O)N1CC(N(C)C(=O)Cn2ccc3cc(Br)c(C)cc32)C1 [Example 357]

>  <limit_operator>
<

>  <pIC50>
3.60

$$$$
>  <compound>
C=CC(=O)N1CC(NC(=O)Cn2cc(CC(=O)N3CCCCC3CN3CCCCC3)c3cc(Br)ccc32)C1 (stereo not shown) [Example 326]

>  <limit_operator>
=

>  <pIC50>
4.58

$$$$
>  <compound>
C=CC(=O)N1CC(N(C)C(=O)Cn2c(C)c(-c3cncnc3C(C)C)c3cc(Cl)cc(C)c32)C1 [Example 339]

>  <limit_operator>
=

>  <pIC50>
5.54

$$$$
>  <compound>
C=CC(=O)N1CC(NC(=O)Cn2c(C)cc3cc(Br)ccc32)C1 [Example 347]

>  <limit_operator>
<

>  <pIC50>
3.60

$$$$
>  <compound>
C=CC(=O)N1CC(NC(=O)Cn2c(C)c(-c3ccccc3Cc3ccccc3)c3cc(Cl)cc(C)c32)C1 [Example 336]

>  <limit_operator>
=

>  <pIC50>
5.68

$$$$
>  <compound>
C=CC(=O)N1C[C@@H](NC(=O)Cn2ccc3cc(Br)ccc32)[C@H]1C [Example 362]

>  <limit_operator>
<

>  <pIC50>
3.60

$$$$
>  <compound>
C=CC(=O)N1CC(NC(=O)Cn2ccc3cccc(CC#N)c32)C1 [Example 360]

>  <limit_operator>
<

>  <pIC50>
3.60

$$$$
>  <compound>
C=CC(=O)N1CC(NC(=O)Cn2c(C)c(-c3cnccc3C3=CCC(C)CC3)c3cc(Cl)cc(C)c32)C1 (stereo not shown) [Example 334]

>  <limit_operator>
=

>  <pIC50>
6.43

$$$$
>  <compound>
C=CC(=O)N1CC(C)(N(C)C(=O)Cn2ccc3cc(Br)ccc32)C1 [Example 356]

>  <limit_operator>
<

>  <pIC50>
3.60

$$$$
>  <compound>
C=CC(=O)N1CC(NC(=O)Cn2cc(CC(=O)NCC3Cc4ccccc4CN3C)c3cc(Br)ccc32)C1 (stereo not shown) [Example 331]

>  <limit_operator>
=

>  <pIC50>
4.65

$$$$
>  <compound>
C=CC(=O)N1CC(N(C)C(=O)Cn2ccc3c(C)c(Br)ccc32)C1 [Example 350]

>  <limit_operator>
=

>  <pIC50>
3.63

$$$$
>  <compound>
C=CC(=O)N1CC(NC(=O)Cn2c(C)c(-c3cnccc3C(C)C)c3cc(Cl)cc(C)c32)C1 [Example 325]

>  <limit_operator>
=

>  <pIC50>
5.81

$$$$
>  <compound>
C=CC(=O)N1CC(NC(=O)Cn2c(C)c(-c3ccccc3C(C)(C)C)c3cc(Cl)ccc32)C1 [Example 318]

>  <limit_operator>
=

>  <pIC50>
4.79

$$$$
>  <compound>
C=CC(=O)N1CC(NC(=O)Cn2c(C)c(-c3c(OC)cccc3OC)c3cc(Cl)cc(C)c32)C1 [Example 343]

>  <limit_operator>
=

>  <pIC50>
4.87

$$$$
>  <compound>
C=CC(=O)N1CC(N(C)C(=O)Cn2c(C)c(-c3cnccc3C3=CCCCC3)c3cc(Cl)cc(C)c32)C1 [Example 337]

>  <limit_operator>
=

>  <pIC50>
5.69

$$$$
